protocol-text: in vitro
Parameters: Viability of infected HeLa host cells, resazurin conversion, bulk resorufin fluorescence relative to DMSO
applied-conditions: human, hela cells; bulk resorufin, mean of 3
Measured viability at 28.5 h, 0.00125 µM by item
Report as a plain number; the unit % is understood.

> print(dat)
                                   molecule  reported.value
1  CC(=O)N1CCc2sccc2C1c1ccccc1NCc1ccoc1 (stereo not shown) [c28e]            92.5
2  O=[N+]([O-])c1ccc(-n2cnc3ccccc32)c([N+](=O)[O-])c1 [c41e]            96.9
3  FC(F)(F)CCN1CCC2(CC1)NCCc1c2[nH]c2ccc(Cl)cc12 [c34e]            91.2

The molecule listed as O=C(CC1CCN(CCc2ccccc2)CC1)Nc1cccc(-n2cccn2)c1 has a reported viability at 28.5 h, 0.00125 µM of 95.9

The molecule listed as N#Cc1c(Nc2cccc(C(F)(F)F)c2)sc(C(=O)c2ccc3c(c2)OCO3)c1N has a reported viability at 28.5 h, 0.00125 µM of 94.7

* * *

protocol-text: in vitro
applied-conditions: human, hela cells, % viability
parameter-measured: viability at 28.5 h, 10 µM (%)
Report as a plain number; the unit % is understood.

> print(dat)
                                   molecule          parameter.measured  reported.value
1            NC(=S)c1c(Cl)cc(C(F)(F)F)cc1Cl  viability at 28.5 h, 10 µM             105
2  O=C1CCC[C@]2(CN(Cc3ccccc3)C[C@H]2c2cccnc2)N1  viability at 28.5 h, 10 µM            96.1
3  Cc1c(C(=O)N(C)CC(F)(F)F)nnn1-c1ccc(F)cc1  viability at 28.5 h, 10 µM            89.8
4  O=C(O)[C@H]1Nc2ccc(Br)cc2[C@H]2[C@H](O)[C@H](O)C[C@H]21  viability at 28.5 h, 10 µM             115
5  COc1ccc(Cn2c(=O)n(C(=O)c3cccc(S(C)(=O)=O)c3)c3ccccc32)cc1  viability at 28.5 h, 10 µM            86.5
6           c1coc(-c2nc3cnccn3c2NC2CCCC2)c1  viability at 28.5 h, 10 µM            90.6
7  COc1ccccc1-c1ccc(C(=O)N(C)CCN(C)C)c(N(C)C)n1  viability at 28.5 h, 10 µM            88.5
8  O=C(Nc1ccccc1N1CCNCC1)c1cccs1 [CBK029443T]  viability at 28.5 h, 10 µM            95.5

Now consider a different molecule.
The molecule listed as Cc1cccc(OCC(=O)Nc2sc3c(c2C(N)=O)CCC3)c1C has a reported viability at 28.5 h, 10 µM of 94.8

* * *

protocol-text: in vitro
applied-conditions: human, hela cells, % viability
Rule: viability at 28.5 h, 10 µM below 90% gives label 1. Equal to or above 90% gives label 0.

Known results for compounds:
> print(dat)
                                   compound  class.label
1  O=C(CSc1n[nH]c(=O)n1Cc1ccccc1)NCc1ccc(-c2ccc(Cl)cc2)o1 [CBK296963]      label 0
2  CC1CC1C(=O)N1CCC(c2nc3ccccc3cc2N)CC1 (stereo not drawn) [CBK285090]      label 0
3  O=C(NCCN1CCOCC1)N(c1ccccc1)c1ccccc1 [CBK270057]      label 0
4  CC(N)C(=O)Nc1ccccc1-c1ccccc1 (stereo not drawn) [CBK267700]      label 0
5  CCC(CN1CCOCC1)NC(=O)Cc1coc2c(C)c(C)ccc12 (stereo not drawn) [CBK282813]      label 1

Shifting focus to the compound that follows.
Consider CCC(Oc1cccc(Cl)c1)C(=O)NN1CCN(C)CC1 (stereo not drawn) [CBK268135] . Does its viability at 28.5 h, 10 µM lie strictly below 90%?
label 0

Where these numbers come from: paper PMC12040169
